Target: T1, LHD101 chainB, split luciferase reporter construct
T1 construct: not shown: N-terminal Strep-tag and sfGFP; GS-linker and smBiT or lgBiT
T1 chain: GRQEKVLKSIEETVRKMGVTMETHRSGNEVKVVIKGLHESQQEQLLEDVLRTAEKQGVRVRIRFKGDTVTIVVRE
Assay: split luciferase equilibrium titration in E. coli lysate, constant partner at 1 nM; first-named construct read as the titrated one; no unit beside the number, M from the axis '[Titrated] / M'
measured.endpoint: Kd (µM)
One number for each entry, in µM.

Prompt: Sample LHD101 chainA, split luciferase reporter construct (designed binder, not shown: N-terminal Strep-tag and sfGFP; GS-linker and smBiT or lgBiT) GRQEKVLKSIEETVRKMGVTMETHRSGNEVKVVIKGLHIKQQRQLYRDVRETSKKQGVETEIEVEGDTVTIVVRE — what was its Kd?
Response: 0.037
